Hey, just so you know, these numbers are from the supplement of paper PMC10065799.

Test system: c-Abl (mouse)
method.notes: phosphorylation enrichment, bacterial display (enrichment ratio); higher = better substrate or ligand; peptides without Tyr show the background;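 note: 11-residue human phosphosite peptides and single-mutation variants displayed on the E. coli surface, counted by deep sequencing, each peptide's frequency after selection divided by its frequency in the unselected input library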;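 note: frequency after pTyr selection over input frequency; kinase dosed for 20-30% of maximal phosphorylation in three min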
Each entry falls in a class defined on phosphorylation enrichment; the bands are lower level = under 0.5, middle level = from 0.5 up to 0.7, upper level = 0.7 and over

GKSFIYAAFHA [KCNT1_Y563_T562I]: upper level
LHSEAYLKYIE [PBRM1_Y1610]: upper level
DHYNQYEQQKM [CHD7_Y75]: lower level
LEIETCRRLLD [KRT12_Y429_Y429C]: upper level
GRRNTYFASIA [ACADM_Y352_YF]: middle level
AFPVSYSSSSA [RET_Y687_G691S]: lower level
ANAFIYVVQLP [L1CAM_Y420_YF]: upper level
FGISGYVVDSV [MAP2K3_Y214_L215V]: middle level

**Query** Which phosphorylation enrichment band matches KVDKECEVRVR [GHR_Y226_Y226C] ?
**Result** middle level

**Query** Which phosphorylation enrichment band matches PSPTKYSLSPS [RANBP2_Y785_R784K] ?
**Result** middle level

**Query** Which phosphorylation enrichment band matches TILEHYRRTHC [MYBPC3_Y1119_V1115I] ?
**Result** middle level

**Query** Which phosphorylation enrichment band matches PSALGYSPSLR [LLGL2_Y40] ?
**Result** upper level

**Query** Which phosphorylation enrichment band matches VNKIFYPDFIV [LIG3_Y768_YF] ?
**Result** middle level

**Query** Which phosphorylation enrichment band matches KKGMIYGGGGG [PSME1_Y249_T244K] ?
**Result** lower level

**Query** Which phosphorylation enrichment band matches KVGNEYVNKGQ [MYH7_Y410_T412N] ?
**Result** lower level

**Query** Which phosphorylation enrichment band matches EAAFVYAISSA [WNT4_Y113] ?
**Result** upper level

====

// reported phosphorylation enrichment for each item listed
system.name: Hck (UniProt P08631)
Sequence (P08631 whole entry, looked up): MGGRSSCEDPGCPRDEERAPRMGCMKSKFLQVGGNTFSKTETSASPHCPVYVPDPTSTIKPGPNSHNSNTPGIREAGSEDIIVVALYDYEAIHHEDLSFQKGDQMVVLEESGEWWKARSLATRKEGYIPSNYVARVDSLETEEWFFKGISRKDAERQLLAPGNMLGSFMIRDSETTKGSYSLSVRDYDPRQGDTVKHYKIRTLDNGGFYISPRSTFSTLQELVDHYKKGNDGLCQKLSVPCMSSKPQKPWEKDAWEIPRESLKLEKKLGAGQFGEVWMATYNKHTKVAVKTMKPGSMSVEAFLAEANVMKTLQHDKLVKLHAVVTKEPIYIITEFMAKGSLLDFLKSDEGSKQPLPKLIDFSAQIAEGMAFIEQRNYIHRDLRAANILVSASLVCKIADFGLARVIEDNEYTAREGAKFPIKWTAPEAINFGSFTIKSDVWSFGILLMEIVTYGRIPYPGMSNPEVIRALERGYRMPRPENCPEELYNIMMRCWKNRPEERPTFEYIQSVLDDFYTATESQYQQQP
method.notes: phosphorylation enrichment, bacterial display (enrichment ratio); higher = better substrate or ligand; peptides without Tyr show the background
Give the value as a plain number.

RLPNGYGLAFR [DLK1_Y262_S260N_YF]: 0.62

Next sequence, phosphorylation enrichment to be filled in.
For record NPSFNYEIVNQ [DYNC1H1_Y3379_R3384Q_YF] the listed phosphorylation enrichment is 0.602

====

Tested on: Fer (mouse)
method.notes: phosphorylation enrichment, bacterial display (enrichment ratio); higher = better substrate or ligand; peptides without Tyr show the background
// reported phosphorylation enrichment for each item listed
Give the value as a plain number.

For record TGQERYRAITS [RAB11B_Y73_A68T] the listed phosphorylation enrichment is 0.346

For record DGYIDYAEFAK [MCFD2_Y138] the listed phosphorylation enrichment is 0.407

For record EEKKKYFDTKI [CASP5_Y103_YF] the listed phosphorylation enrichment is 0.457

====

System: c-Abl (mouse)
method.notes: phosphorylation enrichment, bacterial display (enrichment ratio); higher = better substrate or ligand; peptides without Tyr show the background
// reported phosphorylation enrichment for each item listed
Give the value as a plain number.

VIKDKYPKARY [APTX_Y209]: 0.692

For record RHPYFYAPELL [ALB_Y174] the listed phosphorylation enrichment is 0.694

For record SQDSAYHSGIQ [FLG_Y3940] the listed phosphorylation enrichment is 0.506

For record FGPPQYNIQFS [ERBB2IP_Y977_YF] the listed phosphorylation enrichment is 0.641

For record RKLVDYNSARH [BIN1_Y150_D151N] the listed phosphorylation enrichment is 0.548

For record GFEEAYSVFKK [PAFAH1B1_Y28_YF] the listed phosphorylation enrichment is 0.756

For record CLNAIYQNNLT [GSR_Y158_R153C] the listed phosphorylation enrichment is 0.759

For record VPLLEYFWDIF [CDAN1_Y712_R714W_YF] the listed phosphorylation enrichment is 0.666

For record HFVDEYDPTME [KRAS_Y32_I36M] the listed phosphorylation enrichment is 1.31

For record RRVLVYRGRGA [QDPR_Y16_G17R] the listed phosphorylation enrichment is 0.829

====

// reported phosphorylation enrichment for each item listed
system.name: FGFR3 (UniProt P22607)
Sequence (P22607 whole entry, looked up): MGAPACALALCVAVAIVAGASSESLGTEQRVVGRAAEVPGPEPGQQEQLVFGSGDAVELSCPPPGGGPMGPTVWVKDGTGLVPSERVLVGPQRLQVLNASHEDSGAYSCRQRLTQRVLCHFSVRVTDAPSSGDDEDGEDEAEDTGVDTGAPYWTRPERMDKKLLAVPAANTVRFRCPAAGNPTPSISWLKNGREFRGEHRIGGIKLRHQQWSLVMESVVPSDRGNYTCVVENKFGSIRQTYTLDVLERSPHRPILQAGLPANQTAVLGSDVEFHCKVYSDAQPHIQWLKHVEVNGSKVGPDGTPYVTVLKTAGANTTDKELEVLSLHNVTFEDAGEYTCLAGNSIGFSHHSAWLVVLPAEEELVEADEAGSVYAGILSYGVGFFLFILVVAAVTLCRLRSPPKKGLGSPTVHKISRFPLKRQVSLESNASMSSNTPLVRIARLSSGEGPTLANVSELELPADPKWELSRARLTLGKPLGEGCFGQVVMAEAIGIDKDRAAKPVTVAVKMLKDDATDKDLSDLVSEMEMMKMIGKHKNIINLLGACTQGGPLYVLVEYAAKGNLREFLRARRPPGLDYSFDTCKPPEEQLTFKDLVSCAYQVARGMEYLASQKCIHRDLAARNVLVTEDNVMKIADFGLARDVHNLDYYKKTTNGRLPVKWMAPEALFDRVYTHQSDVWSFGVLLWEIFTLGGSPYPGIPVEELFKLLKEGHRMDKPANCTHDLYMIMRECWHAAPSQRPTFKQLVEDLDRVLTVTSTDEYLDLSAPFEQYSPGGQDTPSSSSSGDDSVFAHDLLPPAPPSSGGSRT
method.notes: phosphorylation enrichment, bacterial display (enrichment ratio); higher = better substrate or ligand; peptides without Tyr show the background
Give the value as a plain number.

DKTGEYPVPLI [ACADM_Y73]: 0.687
KNNDGNIDFAE [MCFD2_Y135_Y135N_YF]: 0.683
TFEFKYPEGSS [TGM4_Y440_YF]: 0.827
QQLQGYVPSNF [FRK_Y99_I100V_YF]: 0.779
VHNLDYFKETT [FGFR3_Y647_K650E_YF]: 0.614

Assay FGFR3 (UniProt P22607), sample VFGEEYEEQPR [ZMYM2_Y1033] , phosphorylation enrichment read: 0.731

====

// reported phosphorylation enrichment for each item listed
System: c-Abl (mouse)
method.notes: phosphorylation enrichment, bacterial display (enrichment ratio); higher = better substrate or ligand; peptides without Tyr show the background
Give the value as a plain number.

Illustrative cases are given below, each with its answer.
VREIRYQGGNR [VWF_Y1570]: 0.615
HLDRSYSYSYS [PEAR1_Y890_R885H]: 0.49
GGYTCYSDGKK [PROS1_Y266_C267S]: 0.908

For record YGSGNYNVFGN [HNRNPA2B1_Y300_D302V] the listed phosphorylation enrichment is 0.49

====

system.name: Hck (UniProt P08631)
method.notes: phosphorylation enrichment, bacterial display (enrichment ratio); higher = better substrate or ligand; peptides without Tyr show the background
readout.name: phosphorylation enrichment
Give the value as a plain number.

Illustrative cases are given below, each with its answer.
NACGLYFKLHN [GATA2_Y376_YF]: 0.491
SISLRYEGRVY [ABL1_Y167]: 0.506
TVFSDYLHPQF [CCPG1_Y569_YF]: 0.643
LDLPGYCPLRE [CCDC116_Y291]: 1.1
CRIELYRIVES [IGFBP1_Y181_V183I]: 0.548

For record LFMGDYVGRGY [PPP2CA_Y86_D88G] the listed phosphorylation enrichment is 1.75

For record GASRRYGSGVS [NEU1_Y242_W240R] the listed phosphorylation enrichment is 0.437

For record PVDTFYDSTRG [DYNC2H1_Y2231_M2227V_YF] the listed phosphorylation enrichment is 0.888

For record GLSSAYGDLTS [KRT8_Y427_G429D] the listed phosphorylation enrichment is 0.535

====

system.name: FGFR1 (UniProt P11362)
Sequence (P11362 whole entry, looked up): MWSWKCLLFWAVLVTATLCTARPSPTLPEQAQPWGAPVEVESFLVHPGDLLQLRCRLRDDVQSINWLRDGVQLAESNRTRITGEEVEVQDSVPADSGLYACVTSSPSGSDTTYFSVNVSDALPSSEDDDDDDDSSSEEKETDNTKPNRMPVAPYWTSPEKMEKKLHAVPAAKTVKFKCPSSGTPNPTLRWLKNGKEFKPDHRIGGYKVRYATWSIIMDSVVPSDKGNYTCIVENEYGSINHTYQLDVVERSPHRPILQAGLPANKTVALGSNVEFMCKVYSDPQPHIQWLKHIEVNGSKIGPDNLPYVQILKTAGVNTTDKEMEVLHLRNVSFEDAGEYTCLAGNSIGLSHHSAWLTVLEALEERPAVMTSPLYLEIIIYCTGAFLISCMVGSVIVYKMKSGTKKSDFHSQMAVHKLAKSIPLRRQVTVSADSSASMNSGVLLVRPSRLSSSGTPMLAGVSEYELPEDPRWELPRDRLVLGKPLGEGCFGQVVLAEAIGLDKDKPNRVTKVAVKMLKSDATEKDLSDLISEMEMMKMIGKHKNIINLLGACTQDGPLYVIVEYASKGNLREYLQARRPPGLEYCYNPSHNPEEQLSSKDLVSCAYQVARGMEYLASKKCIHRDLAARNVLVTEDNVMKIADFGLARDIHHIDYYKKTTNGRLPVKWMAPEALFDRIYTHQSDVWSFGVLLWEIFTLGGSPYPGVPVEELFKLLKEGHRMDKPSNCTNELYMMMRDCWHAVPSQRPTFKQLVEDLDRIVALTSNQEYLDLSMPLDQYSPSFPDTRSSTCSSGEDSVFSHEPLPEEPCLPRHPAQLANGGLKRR
method.notes: phosphorylation enrichment, bacterial display (enrichment ratio); higher = better substrate or ligand; peptides without Tyr show the background
Each entry falls in a class defined on phosphorylation enrichment; the bands are bucket 1: < 0.5; bucket 2: ≥ 0.5 and < 0.6; bucket 3: ≥ 0.6

Before answering, review these 5 worked examples.
FDGGCYEQLFV [MC4R_Y41_S36Y_YF]: bucket 3
YFRDGHMPRQY [GSS_Y270_Y270H]: bucket 2
WISNRYPDFSS [PRPH2_Y184_L185P]: bucket 2
PKAWNYELPAT [PROM1_Y34]: bucket 2
PSALGYSPSLR [LLGL2_Y40]: bucket 1

**Query** Which phosphorylation enrichment band matches KLIMECLPFGS [JAK2_Y931_Y931C_YF] ?
**Result** bucket 2

**Query** Which phosphorylation enrichment band matches TFMKQYPKVFL [CNBD1_Y70] ?
**Result** bucket 2

**Query** Which phosphorylation enrichment band matches LFIGQYSGKKE [L1CAM_Y1229_S1224L] ?
**Result** bucket 3

**Query** Which phosphorylation enrichment band matches TKLKDYYIFNK [CCDC42_Y149_A144T] ?
**Result** bucket 3

**Query** Which phosphorylation enrichment band matches SIIKDYFHRGA [GATM_Y203] ?
**Result** bucket 1

====

system.name: EPHB2 (UniProt P29323)
Sequence (P29323 whole entry, looked up): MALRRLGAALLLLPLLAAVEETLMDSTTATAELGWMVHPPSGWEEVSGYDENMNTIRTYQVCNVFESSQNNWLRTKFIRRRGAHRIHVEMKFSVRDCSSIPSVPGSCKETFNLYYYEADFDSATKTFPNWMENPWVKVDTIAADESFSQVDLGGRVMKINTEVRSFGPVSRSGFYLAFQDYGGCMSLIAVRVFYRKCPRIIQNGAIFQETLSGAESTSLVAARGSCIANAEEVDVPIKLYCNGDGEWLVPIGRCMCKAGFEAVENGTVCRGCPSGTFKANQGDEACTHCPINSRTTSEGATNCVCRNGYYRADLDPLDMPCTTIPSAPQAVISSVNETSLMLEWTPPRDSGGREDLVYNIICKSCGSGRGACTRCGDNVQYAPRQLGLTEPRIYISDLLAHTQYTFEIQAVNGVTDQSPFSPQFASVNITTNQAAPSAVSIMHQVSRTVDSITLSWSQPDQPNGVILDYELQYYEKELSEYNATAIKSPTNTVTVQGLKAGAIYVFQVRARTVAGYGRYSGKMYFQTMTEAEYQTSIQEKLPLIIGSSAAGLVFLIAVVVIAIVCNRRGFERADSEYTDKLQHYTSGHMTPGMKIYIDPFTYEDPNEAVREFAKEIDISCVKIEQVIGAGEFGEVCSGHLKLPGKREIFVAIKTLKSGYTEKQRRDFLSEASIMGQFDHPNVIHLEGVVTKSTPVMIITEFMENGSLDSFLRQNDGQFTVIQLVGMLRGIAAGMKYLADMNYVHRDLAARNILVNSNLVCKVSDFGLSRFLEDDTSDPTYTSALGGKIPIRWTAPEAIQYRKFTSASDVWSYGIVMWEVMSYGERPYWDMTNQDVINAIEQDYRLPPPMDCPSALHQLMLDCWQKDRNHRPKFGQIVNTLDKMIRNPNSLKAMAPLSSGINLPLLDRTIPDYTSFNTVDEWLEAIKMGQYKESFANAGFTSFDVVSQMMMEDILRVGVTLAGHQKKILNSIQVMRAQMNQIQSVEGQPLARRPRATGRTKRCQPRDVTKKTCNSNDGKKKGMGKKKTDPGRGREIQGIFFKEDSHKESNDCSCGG
method.notes: phosphorylation enrichment, bacterial display (enrichment ratio); higher = better substrate or ligand; peptides without Tyr show the background
Label criterion not met if phosphorylation enrichment falls below 0.6; label criterion met in every other case.

Before answering, review these 3 worked examples.
VDGSLYETHPQ [HK1_Y417_K418E]: criterion met
KLVRLYAVVTR [LYN_Y306]: criterion met
IQKWEYVPLGP [FAH_Y244]: criterion not met

**Query** phosphorylation enrichment >= 0.6 for AVAFVYFKSIG [ADGRL4_Y301_YF] ?
**Result** criterion met

**Query** phosphorylation enrichment >= 0.6 for DPFHVYIKNHV [KCNE3_Y95_R99H_YF] ?
**Result** criterion met

====

Test system: c-Abl (mouse)
method.notes: phosphorylation enrichment, bacterial display (enrichment ratio); higher = better substrate or ligand; peptides without Tyr show the background
Each entry falls in a class defined on phosphorylation enrichment; the bands are lower: < 0.6; middle: ≥ 0.6 and < 1; upper: ≥ 1

Before answering, review these 6 worked examples.
KAIMTYVFSFY [ACTN4_Y260_S262F]: middle
QTEAEYRFIFM [PTPN11_Y511_Q510E_YF]: middle
MDDDQYALLTT [EFCAB6_Y675]: middle
AEVDTYCRHNF [HLA-DRB1_Y107_A103E_YF]: middle
LYNQDYPIHCV [GATM_Y227_S231C]: middle
GVFSRHFTTFD [CLCA1_Y661_Y661H_YF]: lower

Please find the next sequence below.
**Query** Which phosphorylation enrichment band matches TAGEPYHDIRF [BAP1_Y223] ?
**Result** lower
